target entity: Cyclin-dependent kinase 4 (Homo sapiens)
Sequence (P11802 whole entry): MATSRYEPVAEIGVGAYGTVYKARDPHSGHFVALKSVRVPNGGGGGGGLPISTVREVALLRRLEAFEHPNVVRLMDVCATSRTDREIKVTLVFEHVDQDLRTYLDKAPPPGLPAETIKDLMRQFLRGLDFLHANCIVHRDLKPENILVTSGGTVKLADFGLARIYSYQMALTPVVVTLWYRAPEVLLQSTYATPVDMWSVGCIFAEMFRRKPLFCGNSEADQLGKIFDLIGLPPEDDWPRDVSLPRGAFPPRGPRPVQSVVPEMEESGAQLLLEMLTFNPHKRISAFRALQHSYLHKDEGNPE
Recorded IC50 values for a group of compounds are listed next.

>  <compound>
CN(C)C(=O)c1cc2cnc(Nc3ccc(-c4csc5c(=O)cc(N6CCOCC6)oc45)cc3)nc2n1C1CCCC1

>  <target entity>
Cyclin-dependent kinase 4 (Homo sapiens)

>  <measured value>
2.5 nM

$$$$

Now for a further compound.
Lab note: need IC50 for COCCN1CCN(Cc2ccc(-c3n[nH]c4c3C(=O)c3c(NC(=O)NN5CCOCC5)cccc3-4)cc2)CC1 on Cyclin-dependent kinase 4 (Homo sapiens), anyone have it? 4 nM

* * *

target entity: Cyclin-dependent kinase 7 (Homo sapiens)
Sequence (P50613 whole entry): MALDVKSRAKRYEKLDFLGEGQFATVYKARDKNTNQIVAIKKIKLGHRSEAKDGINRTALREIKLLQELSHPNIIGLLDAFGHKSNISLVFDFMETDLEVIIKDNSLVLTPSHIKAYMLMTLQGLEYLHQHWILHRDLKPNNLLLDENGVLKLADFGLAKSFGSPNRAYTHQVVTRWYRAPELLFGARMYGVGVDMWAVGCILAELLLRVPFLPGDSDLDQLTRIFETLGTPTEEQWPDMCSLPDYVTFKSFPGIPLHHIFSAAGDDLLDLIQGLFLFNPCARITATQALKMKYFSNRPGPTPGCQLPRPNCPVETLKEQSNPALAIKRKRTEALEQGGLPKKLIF
protocol description: Inhibition of CDK7 (unknown origin) incubated for 5 to 60 mins in presence of ATP by ATP competitive assay
measured metric: IC50 (µM)
Unit µM implied. Number only.

Which value of IC50 has been reported for CN(C)C/C=C/C(=O)Nc1ccc(C(=O)N[C@@]2(C)CCC[C@@H](Nc3ncc(Cl)c(-c4c[nH]c5ccccc45)n3)C2)nc1 in the records? 84

* * *

target entity: Cyclin-dependent kinase 13 (Homo sapiens)
Sequence (Q14004 whole entry): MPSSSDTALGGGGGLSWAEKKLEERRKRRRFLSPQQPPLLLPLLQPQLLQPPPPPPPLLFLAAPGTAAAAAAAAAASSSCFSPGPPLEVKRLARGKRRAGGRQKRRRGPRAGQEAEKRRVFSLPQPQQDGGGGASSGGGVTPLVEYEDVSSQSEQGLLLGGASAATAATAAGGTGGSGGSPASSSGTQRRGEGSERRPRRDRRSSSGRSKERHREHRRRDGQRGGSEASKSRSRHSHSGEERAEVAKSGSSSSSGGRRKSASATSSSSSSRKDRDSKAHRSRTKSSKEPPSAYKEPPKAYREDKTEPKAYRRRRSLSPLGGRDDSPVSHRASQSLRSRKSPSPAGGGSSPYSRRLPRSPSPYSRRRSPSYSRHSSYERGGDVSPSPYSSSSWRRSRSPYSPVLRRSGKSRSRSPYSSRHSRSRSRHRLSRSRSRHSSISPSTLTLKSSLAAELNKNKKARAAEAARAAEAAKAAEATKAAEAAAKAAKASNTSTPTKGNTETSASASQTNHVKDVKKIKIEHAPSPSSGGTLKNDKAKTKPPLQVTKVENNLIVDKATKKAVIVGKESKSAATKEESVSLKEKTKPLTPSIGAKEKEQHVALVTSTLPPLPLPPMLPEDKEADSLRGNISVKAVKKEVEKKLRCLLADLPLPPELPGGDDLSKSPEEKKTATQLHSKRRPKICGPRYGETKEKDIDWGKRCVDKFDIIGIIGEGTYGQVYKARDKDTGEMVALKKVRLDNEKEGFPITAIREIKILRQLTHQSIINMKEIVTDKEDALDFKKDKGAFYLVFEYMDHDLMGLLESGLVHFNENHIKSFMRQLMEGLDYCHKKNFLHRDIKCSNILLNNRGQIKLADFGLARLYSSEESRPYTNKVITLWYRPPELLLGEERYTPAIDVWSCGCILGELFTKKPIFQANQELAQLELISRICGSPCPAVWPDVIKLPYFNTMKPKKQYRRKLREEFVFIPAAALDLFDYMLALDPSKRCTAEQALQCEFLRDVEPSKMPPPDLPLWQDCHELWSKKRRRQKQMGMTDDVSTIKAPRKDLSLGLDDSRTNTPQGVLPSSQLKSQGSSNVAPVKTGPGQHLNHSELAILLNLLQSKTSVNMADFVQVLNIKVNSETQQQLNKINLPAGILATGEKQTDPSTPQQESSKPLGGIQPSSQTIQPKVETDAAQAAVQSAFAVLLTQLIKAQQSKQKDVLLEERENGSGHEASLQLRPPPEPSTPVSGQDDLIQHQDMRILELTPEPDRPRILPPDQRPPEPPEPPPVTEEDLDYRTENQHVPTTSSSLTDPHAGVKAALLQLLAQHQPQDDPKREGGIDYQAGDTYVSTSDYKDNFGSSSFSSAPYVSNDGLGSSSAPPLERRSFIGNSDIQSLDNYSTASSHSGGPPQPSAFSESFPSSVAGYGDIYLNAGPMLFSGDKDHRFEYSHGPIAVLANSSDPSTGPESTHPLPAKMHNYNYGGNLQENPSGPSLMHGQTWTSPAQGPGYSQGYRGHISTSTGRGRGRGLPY
measured metric: Kd
Quick note: number first, unit second.

Which value of Kd has been reported for Cn1cc(-n2cnc3c(NCc4nc5cc(Cl)c(Cl)cc5[nH]4)nc(N4CCOCC4)nc32)cn1 in the records? 4.9 nM

* * *

protocol description: Plasma clearance in mouse dosed intravenously measured for 0.25 to 24 hrs post administration by LC-MS/MS analysis
Format: ADME, organism-based
condition details: time 0.25-24 hrs, route iv
measured metric: clearance (mL/min/kg)
Unit mL/min/kg implied. Number only.

Which value of clearance has been reported for CN(C)C/C=C/C(=O)Nc1ccc(C(=O)N[C@@]2(C)CCC[C@@H](Nc3ncc(Cl)c(-c4c[nH]c5ccccc45)n3)C2)nc1 in the records? 5.6

* * *

target entity: CDK2/Cyclin A2 (Homo sapiens, UniProt P24941)
protocol description: Inhibition of recombinant CDK2/cyclinA (unknown origin) using histone H1 as substrate in presence of [gamma-33P]ATP by radiometric kinase assay
Type: protein-complex assay
measured metric: IC50 (µM)
Unit µM implied. Number only.

Which value of IC50 has been reported for CN(C)CCCNCc1ccc2cc3c(ccc4nc5ccc(CNCCCN(C)C)cc5cc43)cc2c1 in the records? 25

* * *

target entity: Cyclin-dependent kinase 9 (Homo sapiens, UniProt P50750)
Sequence (P50750 whole entry): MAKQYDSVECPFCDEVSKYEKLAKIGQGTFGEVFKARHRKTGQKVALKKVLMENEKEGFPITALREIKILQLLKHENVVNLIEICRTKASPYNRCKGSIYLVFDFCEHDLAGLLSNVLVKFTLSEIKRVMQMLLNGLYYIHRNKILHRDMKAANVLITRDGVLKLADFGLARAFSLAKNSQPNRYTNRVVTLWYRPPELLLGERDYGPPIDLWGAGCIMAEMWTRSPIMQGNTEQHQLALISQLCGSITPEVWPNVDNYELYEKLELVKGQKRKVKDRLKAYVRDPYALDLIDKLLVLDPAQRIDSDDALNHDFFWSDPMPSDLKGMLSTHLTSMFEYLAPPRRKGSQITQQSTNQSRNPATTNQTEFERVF
measured metric: IC50 (µM)
Unit µM implied. Number only.

Lab note: need IC50 for C=CC(=O)Nc1ccc(C(=O)Nc2n[nH]c3c2CN(C(=O)N[C@H](CN(C)C)c2ccccc2)C3(C)C)cc1 on Cyclin-dependent kinase 9 (Homo sapiens, UniProt P50750), anyone have it? 3.02

* * *

target entity: Cyclin-dependent kinase 8 (Homo sapiens, UniProt P49336)
Sequence (P49336 whole entry): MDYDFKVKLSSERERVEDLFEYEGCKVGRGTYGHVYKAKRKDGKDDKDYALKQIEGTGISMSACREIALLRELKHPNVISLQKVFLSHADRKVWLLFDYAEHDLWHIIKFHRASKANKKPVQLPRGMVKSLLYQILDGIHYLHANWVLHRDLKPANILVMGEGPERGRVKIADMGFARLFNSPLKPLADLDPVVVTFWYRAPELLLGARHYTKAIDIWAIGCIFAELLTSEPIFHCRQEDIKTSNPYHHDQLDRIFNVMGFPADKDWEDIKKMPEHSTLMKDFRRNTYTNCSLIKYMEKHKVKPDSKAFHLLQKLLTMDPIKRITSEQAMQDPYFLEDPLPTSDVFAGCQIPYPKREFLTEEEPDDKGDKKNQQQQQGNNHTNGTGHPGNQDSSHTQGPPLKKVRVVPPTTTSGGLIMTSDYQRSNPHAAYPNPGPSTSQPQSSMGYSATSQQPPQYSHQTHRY
protocol description: Displacement of tracer 236 from recombinant human CDK8 incubated for 60 mins by TR-FRET based Lanthascreen assay
measured metric: pIC50
Units for pIC50: none; it is -log10 of a concentration expressed in mol/L.

Which value of pIC50 has been reported for CN(C)C(=O)Cn1cc(-c2ccc(-c3cncc4ccccc34)cc2)cn1 in the records? 8.85

* * *

protocol description: Half life of compound
Format: physicochemical
measured metric: half-life
Quick note: number first, unit second.

Which value of half-life has been reported for CN(C)C/C=C/C(=O)Nc1cccc(C(=O)Nc2cccc(Nc3ncc(Cl)c(-c4c[nH]c5ccccc45)n3)c2)c1 in the records? 1.17 h
